Attribution: PubChem BioAssay (Tox21)

Experiment: qHTS assay to identify small molecule HDAC inhibitors - cell viability counter screen (AID 1259365); also: % is scaled to controls: 0 for no effect and ±100 for the full control effect; nearly all actives have a fitted effect of over 50% in size
Details: HCT-116 viability, CellTiter-Glo ATP luminescence, 2 h; series mostly up to 92.4 µM
Activity calls are given as the source filed them. Calls follow the shape of the dose curve; as a rule, active = well fitted cell-killing curve with a large enough effect in the repeat runs; inconclusive = weak or mixed curves, or effect the other way; inactive = flat fitted curve, though single readings scatter.
Write down the outcome that applies. Available outcomes: TRUE = active, FALSE = inactive

Some entries whose results are on file:
compound=Cc1cc(O)ccc1O classification=FALSE
compound=Brc1cc2ccccc2c2ccccc12 classification=FALSE
compound=CCCCCCCCCCC(=O)O classification=FALSE

q: # fetch the recorded call for Cc1ccc(CO)cc1 here
a: FALSE

* * *

Test: qHTS assay to identify small molecule agonists of the AP-1 signaling pathway (AID 1159526); also: % is scaled to controls: 0 for no effect and ±100 for the full control effect
Conditions: ME-180 (cervical carcinoma) AP-1-bla reporter, beta-lactamase FRET ratio, 5 h; series mostly up to 76.8 µM
Records with an inconclusive call do not appear. Active and inactive are the calls of the source. Calls come from the whole dose curve.
Write down the outcome that applies. Available outcomes: active, inactive

compound=O=C(O)CCCCCCCCCCCBr classification=inactive
compound=Cc1[nH]cnc1CN1CCc2c(c3ccccc3n2C)C1=O classification=inactive
compound=Cc1cc(C)cc(N)c1 classification=inactive
compound=CC(=O)OCC(=O)NCCCOc1cccc(CN2CCCCC2)c1 classification=inactive
compound=O=C1NCCN1CCO classification=inactive

q: # fetch the recorded call for CC(CO)CO here
a: inactive

q: # fetch the recorded call for C=C1CCC2CC1C2(C)C (stereo not drawn) here
a: inactive

q: # fetch the recorded call for CNC(=O)c1cnn(-c2nc(N)c3ncn([C@@H]4O[C@H](CO)[C@@H](O)[C@H]4O)c3n2)c1 here
a: inactive

* * *

Target: Nuclear receptor subfamily 1 group I member 2 (Homo sapiens) (UniProt O75469)
Assay: CYP3A4 induction through human pregnane X receptor (PXR) by small molecules, qHTS assay (AID 1346984); also: % is scaled to controls: 0 for no effect and ±100 for the full control effect; nearly all actives have a fitted effect of over 40% in size
Settings: DPX-2 HepG2 PXR, CYP3A4-luciferin luminescence, 24 h; series mostly up to 46.1 µM
Records with an inconclusive call do not appear. Active and inactive are the calls of the source. Calls follow the shape of the dose curve; as a rule, active = well fitted activation curve with a large enough effect in the repeat runs; inconclusive = weak or mixed curves; inactive = no such curve, though single readings can be large or run the other way.
Write down the outcome that applies. Available outcomes: active, inactive

q: # fetch the recorded call for C[C@@H]1CC(=O)NN=C1c1ccc(NN=C(C#N)C#N)cc1 here
a: inactive

* * *

Assay: qHTS assay to test for compound auto fluorescence at 590 nm (red) in HepG2 cells (AID 720674); also: % is scaled to controls: 0 for no effect and ±100 for the full control effect
Conditions: HepG2 autofluorescence, red 540/590 nm, 1 h; series mostly up to 91.3 µM
The source made the active and inactive calls. Calls come from the whole dose curve; as a rule, active = well fitted curve in the direction sought with a large enough effect in the repeat runs; inconclusive = weak or mixed curves; inactive = flat fitted curve, though single readings scatter.
Property: fluorescence, relative to Rose Bengal

These solved cases illustrate the format of a correct answer.
compound=CCC=CC#N observed=inactive
compound=CC(C)C[C@H](NC(=O)[C@H](CCc1ccccc1)NC(=O)CN1CCOCC1)C(=O)N[C@@H](Cc1ccccc1)C(=O)N[C@@H](CC(C)C)C(=O)[C@@]1(C)CO1 observed=inactive
compound=COc1cc(Nc2c(C#N)cnc3cc(OCCCN4CCN(C)CC4)c(OC)cc23)c(Cl)cc1Cl observed=inactive
compound=CC1=Nc2ccc3ccccc3c2C1(C)C observed=inactive
compound=C/C=C(/C(=C/C)c1ccc(O)cc1)c1ccc(O)cc1 observed="0.479% [at 18.6 µM] (inactive)"

q: # query: fluorescence, relative to Rose Bengal of entry O=Cc1c2ccccc2c(Cl)c2ccccc12
a: inactive

q: # query: fluorescence, relative to Rose Bengal of entry CC(C)COCC(CN(Cc1ccccc1)c1ccccc1)N1CCCC1 (stereo unspecified)
a: inactive

q: # query: fluorescence, relative to Rose Bengal of entry C=C1c2cccc(O)c2C(O)=C2C(=O)[C@]3(O)C(O)=C(C(N)=O)C(=O)[C@@H](N(C)C)[C@@H]3[C@@H](O)[C@H]12
a: -0.284% [at 18.6 µM] (inactive)

q: # query: fluorescence, relative to Rose Bengal of entry C=C/C(C)=C/C/C=C(\C)CCC=C(C)C
a: inactive

q: # query: fluorescence, relative to Rose Bengal of entry CC(CCC(=O)O)C(=O)O (stereo unspecified)
a: inactive

q: # query: fluorescence, relative to Rose Bengal of entry C=C(C)C(=O)OCCOCCOC(=O)C(=C)C
a: inactive

* * *

Target: Cytochrome P450 3A4 (Homo sapiens) (UniProt P08684)
Sequence (P08684 whole entry, looked up): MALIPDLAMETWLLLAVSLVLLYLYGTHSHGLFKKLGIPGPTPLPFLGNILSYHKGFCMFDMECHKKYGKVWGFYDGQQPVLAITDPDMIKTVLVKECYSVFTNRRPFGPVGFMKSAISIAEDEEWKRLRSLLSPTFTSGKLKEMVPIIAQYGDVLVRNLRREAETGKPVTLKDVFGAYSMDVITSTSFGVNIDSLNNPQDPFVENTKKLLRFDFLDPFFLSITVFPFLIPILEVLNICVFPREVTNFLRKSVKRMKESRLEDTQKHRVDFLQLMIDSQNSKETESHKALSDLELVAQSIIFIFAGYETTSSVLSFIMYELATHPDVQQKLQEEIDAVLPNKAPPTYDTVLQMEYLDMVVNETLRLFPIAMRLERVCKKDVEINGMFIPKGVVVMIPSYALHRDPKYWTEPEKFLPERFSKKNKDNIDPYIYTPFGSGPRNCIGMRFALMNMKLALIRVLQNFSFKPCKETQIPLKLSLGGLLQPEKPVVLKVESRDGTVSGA
Experiment: Cytochrome P450 Family 3 Subfamily A Member 4 (CYP3A4) small molecule antagonists: luciferase reporter qHTS assay (AID 1671201); also: nearly all actives have a fitted effect of over 50% in size
Conditions: P450-Glo CYP3A4 enzyme, luciferin luminescence, 1 h; series mostly up to 115 µM
Records with an inconclusive call do not appear. The source made the active and inactive calls. Calls follow the shape of the dose curve; as a rule, active = well fitted inhibition curve with a large enough effect in the repeat runs; inconclusive = weak or mixed curves; inactive = no such curve, though single readings can be large or run the other way.
Write down the outcome that applies. Available outcomes: 1 for active, 0 for inactive

Some entries whose results are on file:
compound=CCCCCC#CC(=O)OC target_system="Cytochrome P450 3A4 (Homo sapiens) (UniProt P08684)" classification=0
compound=CCOC(=O)c1ccc(O)c(O)c1 target_system="Cytochrome P450 3A4 (Homo sapiens) (UniProt P08684)" classification=0
compound=O=c1cc(-c2ccccc2)oc2cc(O)cc(O)c12 target_system="Cytochrome P450 3A4 (Homo sapiens) (UniProt P08684)" classification=1
compound=CC1=C(CC=O)C(C)(C)CCC1 target_system="Cytochrome P450 3A4 (Homo sapiens) (UniProt P08684)" classification=1
compound=N#CCc1ccc(Cl)cc1Cl target_system="Cytochrome P450 3A4 (Homo sapiens) (UniProt P08684)" classification=0

q: # fetch the recorded call for O=C(O)C[C@H](NC(=O)OCc1ccccc1)C(=O)O here
a: 0

q: # fetch the recorded call for CCOC(=O)c1ccc(I)cc1 here
a: 0

q: # fetch the recorded call for O=C1c2ccccc2C(=O)c2c(O)c(O)cc(O)c21 here
a: 0

* * *

Experiment: qHTS assay for small molecule disruptors of the mitochondrial membrane potential (AID 720635)
Settings: HepG2 mitochondrial membrane potential, Mito-MPS dye ratio; series mostly up to 83.2 µM
Records with an inconclusive call do not appear. Activity calls are given as the source filed them. The call rests on the fitted dose curve; in most records, active means well fitted inhibition curve with a large enough effect in the signal ratio in the repeat runs; inconclusive means weak or mixed curves, or effect the other way; inactive means flat fitted curve, though single readings scatter; the % refers to the signal ratio.
Write down the outcome that applies. Available outcomes: true (1) (active), false (0) (inactive)

molecule=O=C(O)c1cccc(-c2noc(-c3ccccc3F)n2)c1 classification="false (0)"
molecule=CO/N=C(/C(=O)N[C@@H]1C(=O)N2C(C(=O)O)=C(COC(N)=O)CS[C@H]12)c1ccco1 classification="false (0)"
molecule=O=C(O)CCC(=O)C(=O)O classification="false (0)"
molecule=Nc1nnc(-c2ccc([N+](=O)[O-])o2)o1 classification="true (1)"
molecule=NC(=O)c1ccncc1 classification="false (0)"

q: # fetch the recorded call for O=C1c2ccccc2C(=O)C1(O)O here
a: true (1)

q: # fetch the recorded call for CC1(C)[C@H](C(=O)O)N2C(=O)C[C@H]2S1(=O)=O here
a: false (0)

q: # fetch the recorded call for CC(=O)OCCN(CCOC(C)=O)c1ccc(N=Nc2ccc([N+](=O)[O-])cc2C#N)cc1 here
a: true (1)

q: # fetch the recorded call for CCCCCCC(C)(C)C(=O)O here
a: false (0)

q: # fetch the recorded call for CC(C)C=O here
a: false (0)

q: # fetch the recorded call for Oc1cccc(Nc2ccccc2)c1 here
a: true (1)

q: # fetch the recorded call for Nc1cccc2c1CN(C1CCC(=O)NC1=O)C2=O (configuration not stated) here
a: false (0)

q: # fetch the recorded call for COc1cc(C(=O)NC2CCN(C)CC2)ccc1Nc1ncc2c(n1)N(C1CCCC1)CC(F)(F)C(=O)N2C here
a: true (1)

* * *

Target: Glucocorticoid receptor (Homo sapiens) (UniProt P04150)
Sequence (P04150 whole entry, looked up): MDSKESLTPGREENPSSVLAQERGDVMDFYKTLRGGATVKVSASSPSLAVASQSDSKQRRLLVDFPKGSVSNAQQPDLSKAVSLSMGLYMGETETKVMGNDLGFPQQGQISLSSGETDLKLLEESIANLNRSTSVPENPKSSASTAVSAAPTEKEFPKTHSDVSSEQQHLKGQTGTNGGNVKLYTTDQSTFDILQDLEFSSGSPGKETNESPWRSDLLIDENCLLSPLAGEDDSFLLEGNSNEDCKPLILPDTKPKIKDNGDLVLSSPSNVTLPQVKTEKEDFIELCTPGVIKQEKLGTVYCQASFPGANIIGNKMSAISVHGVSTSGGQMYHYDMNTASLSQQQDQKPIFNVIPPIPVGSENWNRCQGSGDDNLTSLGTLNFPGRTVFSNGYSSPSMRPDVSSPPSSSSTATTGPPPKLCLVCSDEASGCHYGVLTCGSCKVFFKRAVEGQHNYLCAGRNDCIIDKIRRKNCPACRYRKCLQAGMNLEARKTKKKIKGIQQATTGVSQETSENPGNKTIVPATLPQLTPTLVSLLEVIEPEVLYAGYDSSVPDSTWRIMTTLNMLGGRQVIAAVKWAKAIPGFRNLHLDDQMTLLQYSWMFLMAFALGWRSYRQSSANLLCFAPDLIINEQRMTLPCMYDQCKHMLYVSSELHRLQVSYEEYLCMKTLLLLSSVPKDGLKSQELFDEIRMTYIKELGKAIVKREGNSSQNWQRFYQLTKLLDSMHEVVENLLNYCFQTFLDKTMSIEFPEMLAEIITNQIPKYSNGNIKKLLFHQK
Assay: qHTS assay to identify small molecule antagonists of the glucocorticoid receptor (GR) signaling pathway (AID 720692)
Conditions: GR-bla HeLa, beta-lactamase FRET ratio, dexamethasone-stimulated, 18 h; series mostly up to 58.5 µM
Records with an inconclusive call do not appear. Active and inactive are the calls of the source. Calls follow the shape of the dose curve; as a rule, active = well fitted inhibition curve with a large enough effect in the signal ratio in the repeat runs (not every such curve was filed as active); inconclusive = weak or mixed curves, or effect the other way; inactive = no such curve, though single readings can be large or run the other way; the % refers to the signal ratio.
Write down the outcome that applies. Available outcomes: 1 (yes) for active, 0 (no) for inactive

smi=C=C/C(C)=C/C/C=C(\C)CCC=C(C)C target_system="Glucocorticoid receptor (Homo sapiens) (UniProt P04150)" classification="1 (yes)"

q: # fetch the recorded call for CN1C[C@H](C(=O)N[C@]2(C)O[C@@]3(O)[C@@H]4CCCN4C(=O)[C@H](Cc4ccccc4)N3C2=O)C[C@@H]2c3cccc4[nH]cc(c34)C[C@H]21 here
a: 0 (no)

q: # fetch the recorded call for O=c1[nH]ncc2ccccc12 here
a: 0 (no)

q: # fetch the recorded call for CCn1cc(C(=O)O)c(=O)c2cc(F)c(N3CCNCC3)cc21 here
a: 0 (no)

* * *

Experiment: Human pregnane X receptor (PXR) small molecule agonists, qHTS cell viability counter screen (AID 1346977); also: nearly all actives have a fitted effect of over 50% in size
Details: PXR-Luc HepG2 viability, CellTiter-Fluor, 24 h; series mostly up to 92.4 µM
Inconclusive results are not listed. Active and inactive are the calls of the source. Calls come from the whole dose curve; as a rule, active = well fitted cell-killing curve with a large enough effect in the repeat runs; inconclusive = weak or mixed curves, or effect the other way; inactive = flat fitted curve, though single readings scatter.
Write down the outcome that applies. Available outcomes: 1.0 (active), 0.0 (inactive)

Some entries whose results are on file:
compound=O=C1CCCCCCCCCCOCCCCO1 classification=0.0
compound=CO/N=C(/C(=O)N[C@@H]1C(=O)N2C(C(=O)O)=C(COC(N)=O)CS[C@H]12)c1ccco1 classification=0.0
compound=C[C@H]1C[C@H](O)c2ccsc2S1(=O)=O classification=0.0
compound=NNC(=O)CP(=O)(c1ccccc1)c1ccccc1 classification=0.0
compound=COC(=O)CS classification=0.0
compound=O=C(OC(=O)c1ccccc1)c1ccccc1 classification=0.0
compound="CN1CCCC(CC2c3ccccc3Sc3ccccc32)C1 (stereo not drawn)" classification=1.0
compound=CC(C)=CCC/C(C)=C/CC/C(C)=C/C(=O)OCC(=O)[C@@]1(O)CC[C@H]2[C@@H]3CCC4=CC(=O)C=C[C@]4(C)[C@H]3[C@@H](O)C[C@@]21C classification=0.0

q: # fetch the recorded call for CCCC(C(=O)OCCN(CC)CC)(c1ccccc1)c1ccccc1 here
a: 1.0

q: # fetch the recorded call for CC(C)=CCC1C(=O)N(c2ccccc2)N(c2ccccc2)C1=O here
a: 0.0

q: # fetch the recorded call for CC1=C(Br)C(=O)C(Br)=C/C1=C(/c1ccccc1S(=O)(=O)O)c1cc(Br)c(O)c(Br)c1C here
a: 1.0

q: # fetch the recorded call for C=C/C(C)=C/C/C=C(\C)CCC=C(C)C here
a: 0.0

q: # fetch the recorded call for C/C=C\C/C=C/CCCCCCCCOC(C)=O here
a: 0.0

q: # fetch the recorded call for C[C@@H]1CN(CCCn2c3ccccc3c3ccccc32)C[C@H](C)N1 here
a: 1.0

q: # fetch the recorded call for CC(C)c1nc(CN(C)C(=O)N[C@H](C(=O)N[C@@H](Cc2ccccc2)C[C@H](O)[C@H](Cc2ccccc2)NC(=O)OCc2cncs2)C(C)C)cs1 here
a: 1.0

q: # fetch the recorded call for COc1cc(C(=O)NCCCCCC(=O)O)cc(OC)c1OC here
a: 0.0

q: # fetch the recorded call for CCC1NC(=O)c2cc(S(N)(=O)=O)c(Cl)cc2N1 (stereo not drawn) here
a: 0.0

q: # fetch the recorded call for CC(=O)NC1(c2cccc(F)c2)CCN(CC[C@@]2(c3ccc(Cl)c(Cl)c3)CN(c3ccccc3)C(=O)CO2)CC1 here
a: 1.0

q: # fetch the recorded call for Oc1cccc(Nc2ccccc2)c1 here
a: 0.0

q: # fetch the recorded call for c1csc(SSc2cccs2)c1 here
a: 1.0

q: # fetch the recorded call for CCOC(C)=O here
a: 0.0

q: # fetch the recorded call for CC(CN(C)C)C(C)(O)Cc1ccc(Cl)cc1 (stereo not drawn) here
a: 0.0

q: # fetch the recorded call for O=c1cc(-c2ccccc2)oc2ccc3ccccc3c12 here
a: 0.0

q: # fetch the recorded call for CC/C=C1/OC(=O)c2ccccc21 here
a: 0.0

q: # fetch the recorded call for NCCNCCO here
a: 0.0

q: # fetch the recorded call for CC(C)(O)c1ccc(CNC(=O)c2cccnc2Oc2ccc3nonc3c2)cc1 here
a: 0.0
